What PBM binding z-score was measured for each of the following?
Tested on: PPARg:RXRa 30nM:10nM, anti-RXR (NR concentration 30 nM, RXRa partner concentration 10 nM)
Experiment: PBM binding z-score (relative to random genomic background probes); higher = stronger binding; sequences stand for … in GC…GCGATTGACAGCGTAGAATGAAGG
One number for each entry.

In the examples that follow, each entry is paired with its recorded PBM binding z-score.
- GTACCAAGGTGAATAGGTCGTTGAAGAGTAGGCG: 0.379
- GATACAGGGTCTGCTAGAGGCCAGAGTATGGAAA: -0.281
- GCTGCTAGGTCAACTGATGGTCAGCTACAGCTCG: 0.862

Please go through the list and note PBM binding z-score for each sequence.
1. ATATGTAGGTTAGCTGGGGTAATTCAGACTAGGC
2. TCATATAGGTAAAGGCGAAAGTCGAACGATATGA
3. CTACCAAGGTGAACAAGGCCGTTGATTACTATTC
4. CCTACTGGGCCACGAAAGGTCATCGATTCAGTGA
5. CATCAAAGTTCAACTAAGGTAACGTAAAGCACGC
6. CTCGAAAGGTCGGATGAGGTGAGTATACGGATAA
7. ACTCGCAGGACAAAGGTCAGAGCTACGCCAGTGA

RESULT:
1: 0.942; 2: 3.75; 3: -0.248; 4: 2.42; 5: 2.12; 6: 0.432; 7: 5.49

Please go through the list and note PBM binding z-score for each sequence.
1. TCTTGTAGATTAAAGGTTAAGAAAGCCGAAGCCT
2. CGTCCAAGGTCAAAGGTCAGTGTAGAGATGACGG
3. AGAATGAGGTTATTAAGATCGGGGAATTGCGGTC
4. TAGCCTAGGTCATTGGGCCAGTAGAGTACGCATC
5. CCTAGTTAGTCAGGAGGTCACACACCGGATATGA
6. ACTATTAGTTGACACGAGGGCAACCGATAGGTTG
7. TTACCAAAGTGAAGGTCGTTGATCCCTCTGTAGA
8. CCTACTGGGACACGAAAGGTCATTGATTCAGTGA

RESULT:
1: 6.85; 2: 7.79; 3: 0.253; 4: 0.744; 5: 1.24; 6: 0.354; 7: 0.58; 8: 2.24

Please go through the list and note PBM binding z-score for each sequence.
1. TGTTGTAGATCAACAGGAGGTTAAGAAAGATCGA
2. ATCTCTAGGTAACAGTTCAGTGAATCCCGAGGAT
3. CGTCAAAGTTCAACTAACGTAACGTAAAGCACGC
4. CCTACTGGGCCATTCAGTGGTCATTGATCATATG
5. TCTAGCAGGCCAGAGGGTCACACAAGAGGTACGG
6. CGATCTAGGTCAAGGACAGTGAATCTCCGCACGC
7. TGTCAAAGTTCAAAGGTAACGTAGGTATCCACAC

RESULT:
[0.304, 3.06, 2.17, -0.571, 2.36, 3.68, 4.86]

Short answer on PPARg:RXRa 30nM:10nM, anti-RXR (NR concentration 30 nM, RXRa partner concentration 10 nM) for `TCTTATAGATCAGCAGGTTAAGAAAGCTGGCCAA` , PBM binding z-score: 2.63
